Molecular target: meprin α (Homo sapiens, UniProt Q16819)
Sequence (Q16819 66-593 limits assumed): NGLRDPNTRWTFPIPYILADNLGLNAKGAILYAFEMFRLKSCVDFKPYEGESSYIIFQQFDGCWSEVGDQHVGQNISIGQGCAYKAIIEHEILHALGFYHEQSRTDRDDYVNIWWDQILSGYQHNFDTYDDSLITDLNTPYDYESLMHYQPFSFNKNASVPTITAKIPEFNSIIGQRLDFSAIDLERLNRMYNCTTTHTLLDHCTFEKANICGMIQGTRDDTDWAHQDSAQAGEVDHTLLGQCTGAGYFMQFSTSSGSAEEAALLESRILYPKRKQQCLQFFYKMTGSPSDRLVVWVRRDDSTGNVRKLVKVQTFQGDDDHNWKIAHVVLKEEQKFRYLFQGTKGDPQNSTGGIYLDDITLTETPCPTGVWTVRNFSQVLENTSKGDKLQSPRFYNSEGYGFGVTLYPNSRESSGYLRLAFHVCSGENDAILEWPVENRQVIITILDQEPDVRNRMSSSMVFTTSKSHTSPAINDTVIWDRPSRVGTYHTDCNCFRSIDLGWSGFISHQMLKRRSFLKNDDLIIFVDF
Assay: Meprin α assay, fluorogenic substrate (Mca)-YVADAPK-(K-ε-Dnp), 384 and 1536 well plate formats
Format: biochemical
Conditions: Meprin α 384 wpf; read-out: IC50
reported_endpoint: IC50 (nM)
Numbers only, in nM.

(Q) Param item = `CCCCC[C@H](CC(=O)NO)C(=O)N[C@H](C(=O)N1CCC[C@H]1CO)C(C)C` ; retrieve measured IC50.
(A) 11

###

Molecular target: meprin β (Homo sapiens)
Sequence (Q16820 62-594 limits assumed): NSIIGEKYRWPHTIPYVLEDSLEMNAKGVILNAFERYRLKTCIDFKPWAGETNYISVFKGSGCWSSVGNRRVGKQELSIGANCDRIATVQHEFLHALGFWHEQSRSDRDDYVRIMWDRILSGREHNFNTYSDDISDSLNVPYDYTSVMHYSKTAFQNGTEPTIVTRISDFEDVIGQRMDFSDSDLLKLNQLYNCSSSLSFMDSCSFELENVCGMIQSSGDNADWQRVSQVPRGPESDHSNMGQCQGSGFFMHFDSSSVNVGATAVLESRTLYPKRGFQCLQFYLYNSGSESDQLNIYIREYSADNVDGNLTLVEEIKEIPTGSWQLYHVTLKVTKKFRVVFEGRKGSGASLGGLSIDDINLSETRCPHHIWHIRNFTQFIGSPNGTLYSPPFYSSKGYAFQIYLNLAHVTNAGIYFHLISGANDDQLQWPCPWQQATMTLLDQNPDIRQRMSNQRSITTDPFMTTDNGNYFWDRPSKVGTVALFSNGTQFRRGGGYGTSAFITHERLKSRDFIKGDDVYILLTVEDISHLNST
Test: Meprin β assay, fluorogenic substrate (Mca)-EDEDED-(K-ε-Dnp), 384 and 1536 well plate formats
Format: biochemical
pIC50: −log10 of the molar value.
reported_endpoint: pIC50

(Q) Hello, I am looking for reported pIC50 with meprin β (Homo sapiens) for `O=C(COc1ccc(Cl)cc1Cl)NO` . Could you help?
(A) < 4.77
